Data origin, for the record: patent EP4345091A1

# protocol summary: Stability in human plasma (enzymatic hydrolysis)
# particulars: 48h
assay endpoint: Degradation (%) 48h
Give bare numbers, in %.

Would you please look over these solved cases?
CCCCOC(=O)c1ccccc1 [Compound 1a, Butyl benzoate] ... 100
CCCCCCCCCCCCNC(=O)c1cc([N+](=O)[O-])cc(C(F)(F)F)c1 ... 0
CCCCNC(=O)c1cc([N+](=O)[O-])cc(C(F)(F)F)c1 ... 0

Your task in this section: give Degradation (%) 48h for each listed record.
1. CCCCOC(=O)c1cc([N+](=O)[O-])cc(C(F)(F)F)c1
2. CCCCCCCCCCCCOC(=O)c1ccccc1 [Compound 1e, Dodecyl benzoate]
3. CCCCCCCCNC(=O)c1cc([N+](=O)[O-])cc(C(F)(F)F)c1
4. CCCCCCCCOC(=O)c1cc([N+](=O)[O-])cc([N+](=O)[O-])c1
5. CCCCCCCCNC(=O)c1ccccc1 [Compound 5c, N-octyl-benzamide]

1. 100
2. 6
3. 0
4. 81
5. 0

====

# protocol summary: Chemical stability in phosphate buffer pH 7.4
# particulars: 48h
assay endpoint: Degradation (%) 48h
Answers are plain numbers, in %.

Known Degradation (%) 48h results, listed for orientation:
CCCCNC(=O)c1cc([N+](=O)[O-])cc(C(F)(F)F)c1 ... 0
CCCCOC(=O)c1cc([N+](=O)[O-])cc(C(F)(F)F)c1 ... 12
CCCCCCCCCCCCOC(=O)c1ccccc1 [Compound 1e, Dodecyl benzoate] ... 0
CCCCNC(=O)c1ccc([N+](=O)[O-])cc1 [Compound 6a, N-butyl-4-nitrobenzamide] ... 0
CCCCCCCCCCCCNC(=O)c1ccc([N+](=O)[O-])cc1 [Compound 6e, N-dodecyl-4-nitrobenzamide] ... 0

# batch: return Degradation (%) 48h for each of the 4 compounds below
1. CCCCCCCCOC(=O)c1ccc([N+](=O)[O-])cc1 [Compound 2c, Octyl 4-nitrobenzoate]
2. CCCCCCCCNC(=O)c1ccccc1 [Compound 5c, N-octyl-benzamide]
3. CCCCNC(=O)c1cc([N+](=O)[O-])cc([N+](=O)[O-])c1 [Compound 7a, N-butyl-3.5-dinitrobenzamide]
4. CCCCCCCCCCCCNC(=O)c1cc([N+](=O)[O-])cc(C(F)(F)F)c1

1: 1; 2: 0; 3: 0; 4: 0

Dear colleague, could you send me Degradation (%) 48h for each of the items below? Thanks.
1. CCCCOC(=O)c1cc([N+](=O)[O-])cc([N+](=O)[O-])c1
2. CCCCNC(=O)c1ccccc1 [Compound 5a, N-butyl-benzamide]
3. CCCCCCCCNC(=O)c1ccc([N+](=O)[O-])cc1 [Compound 6c, N-octyl-4-nitrobenzamide]
4. CCCCCCCCOC(=O)c1cc([N+](=O)[O-])cc(C(F)(F)F)c1
5. CCCCCCCCOC(=O)c1cc([N+](=O)[O-])cc([N+](=O)[O-])c1
6. CCCCCCCCCCCCOC(=O)c1cc([N+](=O)[O-])cc([N+](=O)[O-])c1
7. CCCCCCCCCCCCOC(=O)c1cc([N+](=O)[O-])cc(C(F)(F)F)c1
8. CCCCCCCCNC(=O)c1cc([N+](=O)[O-])cc(C(F)(F)F)c1

[14, 0, 0, 1, 0, 0, 2, 0]

Batch of 4 compounds: report Degradation (%) 48h for each.
1. CCCCCCCCCCCCNC(=O)c1cc([N+](=O)[O-])cc([N+](=O)[O-])c1 [Compound 7e, N-dodecyl-3.5-dinitrobenzamide]
2. CCCCCCCCCCCCNC(=O)c1ccccc1 [Compound 5e, N-dodecyl-benzamide]
3. CCCCCCCCOC(=O)c1ccccc1 [Compound 1c, Octyl benzoate]
4. CCCCOC(=O)c1ccccc1 [Compound 1a, Butyl benzoate]

[0, 0, 0, 0]
